measurement-description: nonselective calcium activators in parental CHO-K1 cells, primary screen, counter-screen for M1 PAM project, cell-based, Fluo-8 calcium fluorescence, full deck, 1536-well (AID 602247);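 also: peak over basal fluorescence ratio in a 140 s read after ATP addition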
conditions: parental CHO-K1, ATP EC20, Fluo-8 calcium fluorescence; at 3 µM; stronger effect = higher value; 0% at ATP EC20, 100% at ATP max
Among all 360,000 compounds or so, about 80 (0.02%) were called active. The sample as a whole holds a higher share of actives than the screen did.
endpoint-name: activation (%)

> print(dat)
                                    molecule  reported
 1  COC(=O)c1ccccc1NC(=O)C1(S(=O)(=O)c2ccc(Cl)cc2)CC1       -15
 2  Cc1ccc(C(C)C)c(OCCSc2nc3ccccc3n2CC(=O)O)c1      1.93
 3  C/C(CCc1ccccc1)=N\NC(=O)c1ccc(CN2CCOCC2)cc1      10.1
 4  Cn1c(=O)oc2cc(S(=O)(=O)N3CCC(C(=O)Nc4ccc(OC(F)(F)F)cc4)CC3)ccc21      29.6
 5     NC1=NC2(CCCCC2)N(c2ccc(F)cc2F)C(N)=N1     -9.48
 6   CCOC(=O)c1sc(N)c(C#N)c1COC(=O)C1=COCCO1     -16.5
 7  COc1ccc(-c2ccc(C(=O)NC(C)C)c3occc23)c(C)c1        11
 8  CCOc1ccc(C(=O)Nc2ccc(S(=O)(=O)NCC3CCCO3)cc2)cc1OCC (stereo not given)     -16.7
 9  COc1ccc(C2/C=C\CN(S(=O)(=O)c3cccs3)CC(=O)N2Cc2ccc(F)cc2)cc1 (stereo not given)     -11.5
10  CN(C)/C=C(\C#N)C(=O)c1cccnc1Oc1ccc(F)cc1F      13.9
11              S=C(Nc1ccc2c(c1)OCO2)N1CCCC1      12.1
12  CC1CCCN(C(C(=O)Nc2ccc(C(C)C)cc2)c2ccc3c(c2)OCO3)C1 (stereo not given)      10.5
13                 CCN(CC)Cc1cc(C(C)=O)ccc1O     -6.07
14         C=CCOc1ccccc1NC(=O)CN1C(=O)CNC1=O      13.6
15  O=C(NC12CC3CC(CC(C3)C1)C2)N1CCCC(CO)C1 (stereo not given)      11.3
